Listed variants paired with reported protein stability index
B1: RHOBTB1 (parent)
chain: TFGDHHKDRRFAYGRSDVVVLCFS

- Variants of: B1
- Assay: protein stability index of a GFP-peptide fusion (GPS, HEK-293T) (PSI 1-6); higher = more stable;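 note: lentivirally expressed fusions sorted by FACS into six bins by GFP to DsRed ratio, PSI derived from sequencing read proportions per bin multiplied by bin number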
- Settings: c terminus: a fixed tail appended
Property: protein stability index

INSERT INTO measurements (change, numeric_result) VALUES
  ('C22D', 2.32),
  ('V19A', 2.23),
  ('V18H', 1.88),
  ('K7N', 3.44),
  ('L21A', 1.62),
  ('S16A', 4.21),
  ('G14K', 2.61),
  ('H6T', 1.94),
  ('V20H', 1.62),
  ('L21W', 2.3),
  ('H5R', 2.59),
  ('V18N', 1.57),
  ('G14H', 1.85),
  ('K7T', 3.37),
  ('L21H', 1.9);
